Property: Percent Effect; scope: individual molecules
tested-system: Protein translocase subunit SecA (Escherichia coli (strain K12)) (UniProt P10408)
Sequence (P10408 whole entry): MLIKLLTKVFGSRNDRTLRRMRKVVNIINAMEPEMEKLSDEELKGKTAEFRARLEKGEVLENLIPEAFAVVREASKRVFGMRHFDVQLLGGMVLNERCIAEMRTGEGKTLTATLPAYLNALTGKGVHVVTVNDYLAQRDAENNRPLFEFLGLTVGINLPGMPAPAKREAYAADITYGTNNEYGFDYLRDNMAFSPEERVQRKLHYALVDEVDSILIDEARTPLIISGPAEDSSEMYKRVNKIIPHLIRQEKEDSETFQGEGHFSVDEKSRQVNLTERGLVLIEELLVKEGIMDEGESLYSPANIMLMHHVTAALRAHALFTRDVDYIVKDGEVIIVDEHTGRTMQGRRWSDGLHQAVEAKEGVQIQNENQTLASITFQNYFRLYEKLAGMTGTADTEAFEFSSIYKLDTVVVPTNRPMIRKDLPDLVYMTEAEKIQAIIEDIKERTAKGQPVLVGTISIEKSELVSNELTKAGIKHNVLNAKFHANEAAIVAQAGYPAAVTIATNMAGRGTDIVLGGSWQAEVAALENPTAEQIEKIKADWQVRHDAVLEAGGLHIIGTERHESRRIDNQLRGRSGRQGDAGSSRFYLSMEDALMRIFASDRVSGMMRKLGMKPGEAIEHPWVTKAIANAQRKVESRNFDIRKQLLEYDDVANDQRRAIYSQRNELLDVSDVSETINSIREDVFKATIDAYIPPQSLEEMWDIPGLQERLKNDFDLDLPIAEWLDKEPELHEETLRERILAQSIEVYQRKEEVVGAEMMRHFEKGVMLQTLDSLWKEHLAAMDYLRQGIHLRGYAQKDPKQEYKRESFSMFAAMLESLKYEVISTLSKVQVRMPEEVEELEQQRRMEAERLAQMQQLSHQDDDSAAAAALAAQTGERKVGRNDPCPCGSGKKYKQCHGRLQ
protocol-summary: Assay to Identify E. coli SecA ATPase Inhibitors
Assay type: functional
Set-up: scale not given: direction of the effect not stated beside the values
cond: 30 µM
Results with a measured potency or affinity are listed apart.
measured-endpoint: Percent Effect (%)

{"molecule": "Cc1ccc(C(=O)N2CCC3(CC2)COC(COc2ccccn2)C3)o1 (stereo not drawn)", "tested-system": "Protein translocase subunit SecA (Escherichia coli (strain K12)) (UniProt P10408)", "measured-endpoint": "Percent Effect", "number": -7}
{"molecule": "Cc1c(C)n(Cc2ccncc2)c2nc3c(c(N)c12)CCCCC3", "tested-system": "Protein translocase subunit SecA (Escherichia coli (strain K12)) (UniProt P10408)", "measured-endpoint": "Percent Effect", "number": -2.06}
{"molecule": "Cc1ncc2c(n1)CN(CC(=O)Nc1ccncc1)CC2", "tested-system": "Protein translocase subunit SecA (Escherichia coli (strain K12)) (UniProt P10408)", "measured-endpoint": "Percent Effect", "number": -2.13}
{"molecule": "CC(C)C(C)NC(=O)Nc1ccc(CS(C)(=O)=O)cc1 (stereo not drawn)", "tested-system": "Protein translocase subunit SecA (Escherichia coli (strain K12)) (UniProt P10408)", "measured-endpoint": "Percent Effect", "number": -5.9}
{"molecule": "CC(=O)N1CCO[C@@H]2CN(C(=O)c3cc(C)oc3C)CC[C@@H]2C1", "tested-system": "Protein translocase subunit SecA (Escherichia coli (strain K12)) (UniProt P10408)", "measured-endpoint": "Percent Effect", "number": -6.41}
{"molecule": "CCc1nc(CN2CCN(C(=O)CCc3ccccc3)CC2)cs1", "tested-system": "Protein translocase subunit SecA (Escherichia coli (strain K12)) (UniProt P10408)", "measured-endpoint": "Percent Effect", "number": -6.36}
{"molecule": "COc1cccc(C(=O)NS(=O)(=O)c2cccc(C#N)c2)c1OC", "tested-system": "Protein translocase subunit SecA (Escherichia coli (strain K12)) (UniProt P10408)", "measured-endpoint": "Percent Effect", "number": -5.72}
{"molecule": "CC(C)c1ccc(-c2nnn(CCNS(C)(=O)=O)n2)cc1", "tested-system": "Protein translocase subunit SecA (Escherichia coli (strain K12)) (UniProt P10408)", "measured-endpoint": "Percent Effect", "number": -4.75}
{"molecule": "Cc1oc(-c2ccco2)nc1CC(=O)N1CCC(C(O)C(F)(F)F)CC1 (stereo not drawn)", "tested-system": "Protein translocase subunit SecA (Escherichia coli (strain K12)) (UniProt P10408)", "measured-endpoint": "Percent Effect", "number": -2.39}
{"molecule": "O=C(NCCNc1ncccn1)C1CC(=O)N(CC(F)(F)F)C1 (stereo not drawn)", "tested-system": "Protein translocase subunit SecA (Escherichia coli (strain K12)) (UniProt P10408)", "measured-endpoint": "Percent Effect", "number": -0.757}
{"molecule": "CC(Nc1cccc(CN2CCOC2=O)c1)C(=O)N1CCNC1=O (stereo not drawn)", "tested-system": "Protein translocase subunit SecA (Escherichia coli (strain K12)) (UniProt P10408)", "measured-endpoint": "Percent Effect", "number": -10.4}
{"molecule": "CN1CCN(CC2CC2)C(=O)c2cnc(N3CCCCC3)nc21", "tested-system": "Protein translocase subunit SecA (Escherichia coli (strain K12)) (UniProt P10408)", "measured-endpoint": "Percent Effect", "number": -6.28}
{"molecule": "COC(=O)C1CCN(c2cncc(-n3nc(C)cc3C)n2)CC1", "tested-system": "Protein translocase subunit SecA (Escherichia coli (strain K12)) (UniProt P10408)", "measured-endpoint": "Percent Effect", "number": -4}
{"molecule": "CNS(=O)(=O)CCCN1CCCC1c1noc(C2CC2)n1 (stereo not drawn)", "tested-system": "Protein translocase subunit SecA (Escherichia coli (strain K12)) (UniProt P10408)", "measured-endpoint": "Percent Effect", "number": 0.851}
{"molecule": "CCc1nc(C2CCCN2C(=O)c2cc(C3CC3)[nH]n2)no1 (stereo not drawn)", "tested-system": "Protein translocase subunit SecA (Escherichia coli (strain K12)) (UniProt P10408)", "measured-endpoint": "Percent Effect", "number": -3.71}
{"molecule": "O=C(c1ccncc1)N1C[C@@H]2CC[C@H](C1)N(C(=O)N1CCOCC1)C2", "tested-system": "Protein translocase subunit SecA (Escherichia coli (strain K12)) (UniProt P10408)", "measured-endpoint": "Percent Effect", "number": -0.807}
{"molecule": "Cc1ccn2cc(C(=O)N3CCCC3c3c(C)nn(C)c3C)nc2c1 (stereo not drawn)", "tested-system": "Protein translocase subunit SecA (Escherichia coli (strain K12)) (UniProt P10408)", "measured-endpoint": "Percent Effect", "number": -7.15}
{"molecule": "COC(=O)COc1nc(CC(C)C)c2c(c1C#N)CCCC2", "tested-system": "Protein translocase subunit SecA (Escherichia coli (strain K12)) (UniProt P10408)", "measured-endpoint": "Percent Effect", "number": -4.25}
{"molecule": "Cc1ccc(-c2nc(CN3CCc4nn(C)c(=O)cc4C3)co2)cc1", "tested-system": "Protein translocase subunit SecA (Escherichia coli (strain K12)) (UniProt P10408)", "measured-endpoint": "Percent Effect", "number": -3.32}
{"molecule": "COC(=O)CCNC(=O)c1ccoc1CN1c2ccccc2CC1C (stereo not drawn)", "tested-system": "Protein translocase subunit SecA (Escherichia coli (strain K12)) (UniProt P10408)", "measured-endpoint": "Percent Effect", "number": -4.57}
{"molecule": "Cc1nc(C)c(CC(=O)Nc2ncc(C)s2)c(=O)[nH]1", "tested-system": "Protein translocase subunit SecA (Escherichia coli (strain K12)) (UniProt P10408)", "measured-endpoint": "Percent Effect", "number": -0.904}
{"molecule": "CN(C)C(=O)N[C@@H]1CN(Cc2ccc3c(c2)OCO3)[C@@H]2CCCO[C@@H]21", "tested-system": "Protein translocase subunit SecA (Escherichia coli (strain K12)) (UniProt P10408)", "measured-endpoint": "Percent Effect", "number": -4.35}
{"molecule": "Cc1nn(C)c(N(C)C)c1CNCc1ccc(OCC(N)=O)cc1", "tested-system": "Protein translocase subunit SecA (Escherichia coli (strain K12)) (UniProt P10408)", "measured-endpoint": "Percent Effect", "number": -3.65}
{"molecule": "C[C@]1(O)CCN(Cc2cncs2)C[C@@H]1Oc1cccc(F)c1", "tested-system": "Protein translocase subunit SecA (Escherichia coli (strain K12)) (UniProt P10408)", "measured-endpoint": "Percent Effect", "number": 0.894}
{"molecule": "CN(Cc1ccco1)C[C@H]1OC[C@@H]2CCN(Cc3cccnc3)C[C@@H]21", "tested-system": "Protein translocase subunit SecA (Escherichia coli (strain K12)) (UniProt P10408)", "measured-endpoint": "Percent Effect", "number": -2.62}
{"molecule": "NC(=O)CN1CCC(NC(=O)Nc2nccs2)CC1", "tested-system": "Protein translocase subunit SecA (Escherichia coli (strain K12)) (UniProt P10408)", "measured-endpoint": "Percent Effect", "number": -1.25}
{"molecule": "Cc1cnn(CC2CCCCN2Cc2cc(C)on2)c1 (stereo not drawn)", "tested-system": "Protein translocase subunit SecA (Escherichia coli (strain K12)) (UniProt P10408)", "measured-endpoint": "Percent Effect", "number": -1.2}
{"molecule": "CC(c1cccc(S(N)(=O)=O)c1)N(C)CCc1ccccc1 (stereo not drawn)", "tested-system": "Protein translocase subunit SecA (Escherichia coli (strain K12)) (UniProt P10408)", "measured-endpoint": "Percent Effect", "number": -0.406}
{"molecule": "C=Cc1ccc(C(=O)N2CCCC(Nc3ccc(F)cc3)C2)cc1 (stereo not drawn)", "tested-system": "Protein translocase subunit SecA (Escherichia coli (strain K12)) (UniProt P10408)", "measured-endpoint": "Percent Effect", "number": -3.33}
{"molecule": "CCOC1CCN(C(=O)c2cnn(-c3ccccc3Cl)c2)CC1", "tested-system": "Protein translocase subunit SecA (Escherichia coli (strain K12)) (UniProt P10408)", "measured-endpoint": "Percent Effect", "number": -4.12}
{"molecule": "O=C(NC1COC2(CCN(Cc3ccccn3)CC2)C1)c1ccccn1 (stereo not drawn)", "tested-system": "Protein translocase subunit SecA (Escherichia coli (strain K12)) (UniProt P10408)", "measured-endpoint": "Percent Effect", "number": -2.18}
{"molecule": "Cc1nn(C)cc1-c1cc(C(F)(F)F)c2c(C)nn(CC(=O)O)c2n1", "tested-system": "Protein translocase subunit SecA (Escherichia coli (strain K12)) (UniProt P10408)", "measured-endpoint": "Percent Effect", "number": 0.552}
{"molecule": "c1cc(CN2CCCC(c3noc(C4CC4)n3)C2)no1 (stereo not drawn)", "tested-system": "Protein translocase subunit SecA (Escherichia coli (strain K12)) (UniProt P10408)", "measured-endpoint": "Percent Effect", "number": 0.187}
{"molecule": "CC(C)NC(=O)N1C[C@H]2C[C@H](C(=O)NCc3ccccc3)[C@@H](C1)O2", "tested-system": "Protein translocase subunit SecA (Escherichia coli (strain K12)) (UniProt P10408)", "measured-endpoint": "Percent Effect", "number": -5.17}
{"molecule": "CCc1nc(C2CCCN(C(=O)c3ccc(OC(C)C)nc3)C2)no1 (stereo not drawn)", "tested-system": "Protein translocase subunit SecA (Escherichia coli (strain K12)) (UniProt P10408)", "measured-endpoint": "Percent Effect", "number": -8.81}
{"molecule": "COc1c(CNCc2ccc(CN(C)C)cc2)c(C(C)C)nn1C", "tested-system": "Protein translocase subunit SecA (Escherichia coli (strain K12)) (UniProt P10408)", "measured-endpoint": "Percent Effect", "number": 2.77}
{"molecule": "O=C1O[C@@H]2CN(Cc3cccc(F)c3)C[C@@H]2N1CCCN1CCOCC1", "tested-system": "Protein translocase subunit SecA (Escherichia coli (strain K12)) (UniProt P10408)", "measured-endpoint": "Percent Effect", "number": -1.1}
{"molecule": "CC(C)NC(=O)N1CCN(Cc2ccccn2)CC2(CC(=O)N(C)C2)C1 (stereo not drawn)", "tested-system": "Protein translocase subunit SecA (Escherichia coli (strain K12)) (UniProt P10408)", "measured-endpoint": "Percent Effect", "number": -6.73}
